- assay.target: FKBP12 (Homo sapiens, UniProt P62942)
- Sequence (P62942 whole entry): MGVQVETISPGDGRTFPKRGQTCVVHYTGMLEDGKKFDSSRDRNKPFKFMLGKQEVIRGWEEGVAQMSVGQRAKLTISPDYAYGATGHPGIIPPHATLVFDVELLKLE
- test.details: competitive fluorescence polarization assay, binding to FKBP12
- assay.context: Table 1, competitive Fluorescence Polarization Assay; read-out: Ki [nM] FKBP12
- Method: All macrocyclic compounds were tested in a competitive fluorescence polarization assay for binding towards FKBP51 as well as the homologs FKBP12, FKBP12.6 and FKBP52 (Table 1). Example 8: […] of the Macrocyclic FKBP51 Ligands by SPPS
Recorded Ki by entry

| compound | unit.symbol | Ki |
| --- | --- | --- |
| COc1ccc(CCC2OC(=O)C3CCCCN3C(=O)C(C3CCCCC3)c3cc(OC)c(OC)c(c3)OC/C=C\COc3cccc2c3)cc1OC (stereo not drawn) [35-(Z)] | nM | 173 |
| COc1ccc(CC[C@H]2OC(=O)[C@@H]3CCCCN3C(=O)[C@@H](C3CCCCC3)c3cc(OC)c(c(OC)c3)OC/C=C/COc3cccc2c3)cc1OC [31-(E)] | nM | 289 |
| COc1ccc(CC[C@H]2OC(=O)[C@@H]3CCCCN3C(=O)[C@@H](C3CCCCC3)c3cc(OC)c(OC)c(c3)OCCOc3cccc2c3)cc1OC | nM | 308 |
| COc1ccc(CC[C@H]2OC(=O)[C@@H]3CCCCN3C(=O)[C@@H](C3CCCCC3)c3cc(OC)c(c(OC)c3)OC/C=C\COc3cccc2c3)cc1OC [31-(Z)] | nM | 261 |
| COc1ccc(CC[C@H]2OC(=O)[C@@H]3CCCCN3C(=O)[C@@H](C3CCCCC3)c3cc(OC)c(c(OC)c3)OCCCCOc3cccc2c3)cc1OC | nM | 159 |
| COc1ccc(CC[C@H]2OC(=O)[C@@H]3CCCCN3C(=O)[C@@H](C3CCCCC3)c3cc(OC)c(c(OC)c3)OCC/C=C\COc3cccc2c3)cc1OC [32-(Z)] | nM | 189 |

* * *

- assay.target: FKBP12.6 (Homo sapiens, UniProt P68106)
- Sequence (P68106 whole entry): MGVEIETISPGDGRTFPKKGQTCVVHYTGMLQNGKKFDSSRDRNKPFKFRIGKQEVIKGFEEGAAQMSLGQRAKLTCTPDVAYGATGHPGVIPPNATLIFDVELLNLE
- test.details: competitive fluorescence polarization assay, binding to FKBP12.6
- assay.context: Table 1, competitive Fluorescence Polarization Assay; read-out: Ki [nM] FKBP12.6
quantity.kind: Ki (nM)

| compound | unit.symbol | recorded.measurement |
| --- | --- | --- |
| COc1ccc(CC[C@H]2OC(=O)[C@@H]3CCCCN3C(=O)[C@@H](C3CCCCC3)c3cc(OC)c(OC)c(c3)OCCCOC/C=C/COc3cccc2c3)cc1OC [38-(E)] | nM | 144 |
| COc1ccc(CC[C@H]2OC(=O)[C@@H]3CCCCN3C(=O)[C@@H](C3CCCCC3)c3cc(OC)c(OC)c(c3)OCCCCOc3cccc2c3)cc1OC | nM | 62 |
| COc1ccc(CC[C@H]2OC(=O)[C@@H]3CCCCN3C(=O)[C@@H](C3CCCCC3)c3cc(OC)c(c(OC)c3)OCCOc3cccc2c3)cc1OC | nM | 190 |
| COc1cccc([C@@H](CCc2ccc(OC)c(OC)c2)OC(=O)[C@@H]2CCCCN2C(=O)[C@H](c2cc(OC)c(OC)c(OC)c2)C2CCCCC2)c1 [Compound A1, reference compound] | nM | 199 |

* * *

- assay.target: FKBP51FK1 (Homo sapiens)
- Sequence (Q13451 42-130 limits assumed): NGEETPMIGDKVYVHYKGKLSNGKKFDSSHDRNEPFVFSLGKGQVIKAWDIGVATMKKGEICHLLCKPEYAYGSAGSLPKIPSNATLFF
- test.details: biochemical
- assay.context: Ki [nM] FKBP51FK1, Table 1, competitive Fluorescence Polarization Assay

| molecule | Ki [nM] |
| --- | --- |
| COc1ccc(CC[C@H]2OC(=O)[C@@H]3CCCCN3C(=O)[C@@H](C3CCCCC3)c3cc(OC)c(OC)c(c3)OCCCOc3cccc2c3)cc1OC | 54 |
| COc1ccc(CC[C@H]2OC(=O)[C@@H]3CCCCN3C(=O)[C@@H](C3CCCCC3)c3cc(OC)c(OC)c(c3)OCC/C=C\COc3cccc2c3)cc1OC [36-(Z)] | 77 |
| COc1ccc(CC[C@H]2OC(=O)[C@@H]3CCCCN3C(=O)[C@@H](C3CCCCC3)c3cc(OC)c(OC)c(c3)OCCOC/C=C/COc3cccc2c3)cc1OC [37-(E)] | 46 |
| COc1ccc(CC[C@H]2OC(=O)[C@@H]3CCCCN3C(=O)[C@@H](C3CCCCC3)c3cc(OC)c(c(OC)c3)OCCCCCOc3cccc2c3)cc1OC | 102 |
| COc1ccc(CC[C@H]2OC(=O)[C@@H]3CCCCN3C(=O)[C@@H](C3CCCCC3)c3cc(OC)c(OC)c(c3)OCCCOCCCCOc3cccc2c3)cc1OC | 80 |
| COc1ccc(CC[C@H]2OC(=O)[C@@H]3CCCCN3C(=O)[C@@H](C3CCCCC3)c3cc(OC)c(OC)c(c3)OCCOc3cccc2c3)cc1OC | 47 |
| COc1ccc(CC[C@H]2OC(=O)[C@@H]3CCCCN3C(=O)[C@@H](C3CCCCC3)c3cc(OC)c(c(OC)c3)OCCCOc3cccc2c3)cc1OC | 67 |
| COc1ccc(CC[C@H]2OC(=O)[C@@H]3CCCCN3C(=O)[C@@H](C3CCCCC3)c3cc(OC)c(c(OC)c3)OCCOc3cccc2c3)cc1OC | 64 |
| COc1ccc(CC[C@H]2OC(=O)[C@@H]3CCCCN3C(=O)[C@@H](C3CCCCC3)c3cc(OC)c(OC)c(c3)OCCCOC/C=C/COc3cccc2c3)cc1OC [38-(E)] | 93 |
| COc1ccc(CC[C@H]2OC(=O)[C@@H]3CCCCN3C(=O)[C@@H](C3CCCCC3)c3cc(OC)c(OC)c(c3)OCCOC/C=C\COc3cccc2c3)cc1OC [37-(Z)] | 113 |
| COc1ccc(CC[C@H]2OC(=O)[C@@H]3CCCCN3C(=O)[C@@H](C3CCCCC3)c3cc(OC)c(c(OC)c3)OCCOCCCCOc3cccc2c3)cc1OC | 118 |
| COc1ccc(CC[C@H]2OC(=O)[C@@H]3CCCCN3C(=O)[C@@H](C3CCCCC3)c3cc(OC)c(c(OC)c3)OC/C=C/COc3cccc2c3)cc1OC [31-(E)] | 56 |
| COc1ccc(CC[C@H]2OC(=O)[C@@H]3CCCCN3C(=O)[C@@H](C3CCCCC3)c3cc(OC)c(OC)c(c3)OCCC(=O)CCOc3cccc2c3)cc1OC [Compound 61a] | 8 |
| COc1ccc(CC[C@H]2OC(=O)[C@@H]3CCCCN3C(=O)[C@@H](C3CCCCC3)c3cc(OC)c(c(OC)c3)OCCCCOc3cccc2c3)cc1OC | 53 |
| COc1ccc(CC[C@H]2OC(=O)[C@@H]3CCCCN3C(=O)[C@@H](C3CCCCC3)c3cc(OC)c(OC)c(c3)OCCCCOc3cccc2c3)cc1OC | 30 |

Cited source: patent US11834463B2
